Test system: RXF 393 renal
EXPERIMENTAL DETAILS: NCI tumour cell line growth inhibition, 48 h
The following compounds are shown together with reported log10 TGI values.
Transform log10 | Measure TGI | Unit µM

Record excerpt, results attached:
C=C1c2nc3ccccc3n2C=C(c2ccccc2)N1c1ccc(OC)cc1	1.92
COc1cc(O)c2c(c1)C(O)C(O)CC1OC1C(=O)/C=C/CC(C)OC2=O (configuration not stated)	0.75
N#Cc1nnc2c3c(-c4ccc(Cl)cc4)c(C#N)c(=O)[nH]c3nn2c1N	1.17
Cc1ccc(Nc2nnc3n2S(=O)(=O)c2cc(C)c(Cl)cc2S3)cc1	1.69
CN1C(=O)C23CC4=CC=CC(O)C4N2C(=O)C1(CO)SS3 (configuration not stated)	-0.42
O=C(CCN1CCCCC1CO)Nc1ccc2c(c1)C(=O)c1ccc(NC(=O)CCN3CCCCC3CO)cc1C2=O (configuration not stated)	0.87
O=C(O)c1ccc(Nc2cnc3ccc(C(F)(F)F)cc3n2)cc1	1.55
COC(=O)Nc1nc2ccc(Sc3ccc(NC(=O)Nc4cc(C(F)(F)F)ccc4F)cc3)cc2[nH]1	0.91
O=C(CN=Cc1cccs1)CSC(c1ccccc1)c1ccccc1	1.64
CC(C)=C1CCC(CN2CCCC2)C1=O (configuration not stated)	1.60

Enquiry: Requested read-out log10 TGI, target or system RXF 393 renal, entry O=C1/C(=C/c2ccccc2)CN(C(=O)Oc2ccc([N+](=O)[O-])cc2)C/C1=C\c1ccccc1
Return: 0.65

Enquiry: Also check COc1cc(C2c3cc4c(cc3[C@@H](Nc3cccc(O)c3)C3COC(=O)[C@H]23)OCO4)cc(OC)c1O (some centres not stated)
Return: 0.97

Enquiry: Also check C[C@]12CC[C@@H]3c4ccc(O)cc4CC[C@H]3[C@@H]1CC[C@@H]2NS(=O)(=O)c1ccc(-c2ccccc2)cc1
Return: 0.91
